tested on: Rattus norvegicus; assay: Starting systolic blood pressure at dose of 50 mg/kg in rat; type: functional, Artery
endpoint: SP (mmHg)
Dear colleague, please return just the value in mmHg, with no unit written.

In [3]: df
Out[3]:
                                   compound  recorded_measurement
0  O=C(NC(=O)c1ccccc1)NC1CCN(CCCC(=O)c2ccc(F)cc2)CC1                   184
1  O=C(NC(=O)c1ccccc1)NC1CCN(CC(=O)C2COc3ccccc3O2)CC1 (stereo not given)                   181
2  CN(/C(S)=N/c1ccccc1)C1CCN(CCc2c[nH]c3ccccc23)CC1                   172
3  O=C(NC(=O)c1ccccc1)NC1CCN(CC(=O)c2ccccc2)CC1                   166

// next item, SP requested
Which SP reading was recorded for the compound O=C(Nc1ccccc1)NC1CCN(CCCC(=O)c2c[nH]c3ccccc23)CC1 ?
187

---

system: Rattus norvegicus; test: The percent fall in systolic blood pressure at 1.5 / 4 h after peroral administration of 50 mg/kg in DOCA/saline hypertensive rats at 2 hr; format: functional, Artery; conditions: route oral
We label by threshold. Values of Fall strictly beneath 30% are 1. Values of 30% and up are 0.

                                   compound  class_assignment
0  O=C(NC(=O)c1ccccc1)NC1CCN(CCCC(=O)c2ccc(F)cc2)CC1                 0
1  O=C(NC1CCCCC1)NC1CCN(CC(O)C2COc3ccccc3O2)CC1 (configuration not stated)                 1
2  COc1ccccc1OCC(O)CN1CCC(NC(=O)NC(=O)c2ccccc2)CC1 (configuration not stated)                 1
3  O=C(NC(=O)c1ccc(F)cc1)NC1CCN(CC(O)C2COc3ccccc3O2)CC1 (configuration not stated)                 1
4  O=C(CCCN1CCC(NC(=S)NC(=O)c2ccccc2)CC1)c1ccccc1                 0

Find out if reported Fall for O=C(NC(=O)c1cccs1)NC1CCN(CCc2c[nH]c3ccccc23)CC1 is less than 30%
0

---

SP by entry:
system: Rattus norvegicus; assay: Starting systolic blood pressure at dose of 10 mg/kg; type: functional, Artery
Dear colleague, please return just the value in mmHg, with no unit written.

>>> df
                         structure_notation  endpoint  recorded_measurement
0  CN(C(=O)Nc1ccccc1)C1CCN(CCc2c[nH]c3ccccc23)CC1        SP                   168

Which SP reading was recorded for the molecule O=C(NC(=O)c1cccs1)NC1CCN(CCCC(=O)c2ccc(F)cc2)CC1 ?
171

Which SP reading was recorded for the molecule O=C(NC1CCN(CCc2c[nH]c3ccccc23)CC1)c1ccccc1 ?
197

Which SP reading was recorded for the molecule O=C(NC(=O)c1ccccc1)NC1CCN(CCc2c[nH]c3ccccc23)CC1 ?
178

Which SP reading was recorded for the molecule O=C(NC(=O)c1ccccc1)NC1CCN(CCCC(=O)c2ccccc2)CC1 ?
173

Which SP reading was recorded for the molecule O=C(NC(=O)c1cccs1)NC1CCN(CCc2c[nH]c3ccccc23)CC1 ?
169

Which SP reading was recorded for the molecule O=C(NC(=O)C1CCCCC1)NC1CCN(CCc2c[nH]c3ccccc23)CC1 ?
170
